# Experiment summary: chemical genetic growth profiling, strain panel (AID 1159580);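 also: tested at 20 µM; growth read once vehicle control cultures reached saturation at 30 °C; 1 = growth at the plate median or of vehicle wells; lower values mean less growth of the strain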
# Condition set: S. cerevisiae deletion strains, growth OD, locus YOR106W, strain vam3, active compounds read low
About 2,000 (36%) of roughly 5,500 compounds were called active. Another 18% or so got no clear call; they are omitted. The list shows a part of the results.
Each entry below carries its recorded normalized growth.
Observed property: normalized growth

{"Compound": "CN(C)C(=O)Oc1ccc[n+](C)c1", "Recorded result": 1}
{"Compound": "CCC(=O)OC1[C@@H]2CC3=C4CC(=O)O[C@@H](c5ccoc5)[C@]4(C)CCC3[C@@](C)(C2=O)[C@@H](CC(=O)OC)C1(C)C (some centres not stated)", "Recorded result": 1.03}
{"Compound": "CC(=O)O[C@H]1C[C@@]2(C)[C@@H](C[C@@H](O)C3[C@]2(C)CC[C@H]2[C@H](C)[C@H](O)CC[C@]32C)/C1=C(/CCC=C(C)C)C(=O)O (some centres not stated)", "Recorded result": 1.04}
{"Compound": "CC(=O)O[C@@H]1CC2C(C)(C)[C@H](O)C=C[C@]2(C)C2CC[C@@]3(C)[C@H](c4ccoc4)OC(=O)C4OC43[C@@]21C (some centres not stated)", "Recorded result": 1.01}
{"Compound": "CC[C@@H]1OC(=O)C[C@@H](O)[C@H](C)[C@@H](O[C@@H]2O[C@H](C)[C@@H](O)[C@H](N(C)C)[C@H]2O)[C@@H](CCN2C[C@H](C)C[C@H](C)C2)C[C@@H](C)C(=O)/C=C/C(C)=C\\[C@@H]1CO[C@@H]1O[C@H](C)[C@@H](O)[C@@H](OC)[C@H]1OC", "Recorded result": 1.01}
{"Compound": "COc1ccc2nc(S(=O)Cc3ncc(C)c(OC)c3C)[nH]c2c1 (configuration not stated)", "Recorded result": 0.857}
{"Compound": "O=C(O)COc1ccc(Cl)cc1Cl", "Recorded result": 0.994}

* * *

# Experiment summary: chemical genetic growth profiling, strain panel (AID 1159580);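 also: tested at 20 µM; growth read once vehicle control cultures reached saturation at 30 °C; 1 = growth at the plate median or of vehicle wells; lower values mean less growth of the strain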
# Condition set: S. cerevisiae deletion strains, growth OD, locus YOR070C, strain gyp1, active compounds read low
Hit rate of the full screen: of about 5,500 compounds, about 2,000 (36%) were called active. About 18% were inconclusive and are not listed. The list shows a part of the results.
Quick reference for normalized growth among some molecules
Observed property: normalized growth

{"Molecule": "Fc1ccc([C@@H]2CCNC[C@H]2COc2ccc3c(c2)OCO3)cc1", "Observed property": "normalized growth", "Recorded result": "1 (inactive)"}
{"Molecule": "CN1CCC[C@@H]1CCO[C@](C)(c1ccccc1)c1ccc(Cl)cc1", "Observed property": "normalized growth", "Recorded result": "0.974 (inactive)"}
{"Molecule": "CCN1C[C@@]2(COC)C3[C@@H](OC)[C@H]4[C@@H]1[C@]3(C(OC)C[C@H]2O)C1C[C@@]2(O)[C@H](OC(=O)c3ccccc3)C1[C@]4(OC(C)=O)[C@@H](O)[C@@H]2OC (stereo not given in full)", "Observed property": "normalized growth", "Recorded result": "1.01 (inactive)"}
{"Molecule": "CC12CCCCC1(Br)[N+](=O)N2[O-] (stereo not given)", "Observed property": "normalized growth", "Recorded result": "0.994 (inactive)"}
{"Molecule": "O=C1CCCN1CC#CCN1CCCC1", "Observed property": "normalized growth", "Recorded result": "1.02 (inactive)"}
{"Molecule": "COC[C@]12CN(C=O)C3[C@@H]4[C@H](OC)C1[C@]3(C1CC3(O)C(OC)C(O)C4(OC(C)=O)C1C3OC(=O)c1ccccc1)[C@@H](OC)C[C@H]2O (stereo not given in full)", "Observed property": "normalized growth", "Recorded result": "1 (inactive)"}
{"Molecule": "O=C(O)CCCCCCCC(=O)O", "Observed property": "normalized growth", "Recorded result": "1.02 (inactive)"}
{"Molecule": "C[C@]12CCC3c4ccc(OC(=O)c5ccccc5)cc4CCC3C1CCC2=O (stereo not given in full)", "Observed property": "normalized growth", "Recorded result": "0.984 (inactive)"}
{"Molecule": "O=c1[nH]c(=O)n(C2C[C@H](O)[C@@H](CO)O2)cc1C(F)(F)F (stereo not given in full)", "Observed property": "normalized growth", "Recorded result": "0.977 (inactive)"}
{"Molecule": "CC1(C)N([O-])[N+](=O)C1(C)Br (stereo not given)", "Observed property": "normalized growth", "Recorded result": "0.976 (inactive)"}
{"Molecule": "CC1OC(O[C@H]2/C=C/C=C/C=C/C=C/C=C/C=C/C=C/[C@H](C)[C@@H](O)[C@@H](C)[C@H](C)OC(=O)CC(O)CC(O)CCC(O)C(O)CC(O)C[C@]3(O)C[C@H](O)C(C(=O)O)C(C2)O3)C(O)[C@H](N)C1O (stereo not given in full)", "Observed property": "normalized growth", "Recorded result": "0.971 (inactive)"}
{"Molecule": "COc1ccc(-c2oc3cc(OC)c(OC)c(OC)c3c(=O)c2OC)cc1", "Observed property": "normalized growth", "Recorded result": "0.978 (inactive)"}
{"Molecule": "CC(=O)C1CC[C@H]2C3CC[C@H]4C[C@H](O)CC[C@]4(C)C3CC[C@]12C (stereo not given in full)", "Observed property": "normalized growth", "Recorded result": "0.991 (inactive)"}
{"Molecule": "COc1ccc2oc3ccccc3c(=O)c2c1", "Observed property": "normalized growth", "Recorded result": "0.859 (active)"}
{"Molecule": "CC(=O)C1CCC2C3CCC4C[C@H](O)CCC4(C)C3C[C@H](O)C12C (stereo not given in full)", "Observed property": "normalized growth", "Recorded result": "0.982 (inactive)"}
{"Molecule": "NCCCCC(=O)O", "Observed property": "normalized growth", "Recorded result": "1.02 (inactive)"}
{"Molecule": "O=C(O)C1CCCNC1 (stereo not given)", "Observed property": "normalized growth", "Recorded result": "1.02 (inactive)"}
{"Molecule": "COC(=O)/C(C)=C\\CC12OC(C)(C)C3CC(C=C4C(=O)c5c(OC)c6c(c(CC=C(C)C)c5OC431)OC(C)(CCC=C(C)C)C=C6)C2=O (stereo not given)", "Observed property": "normalized growth", "Recorded result": "1 (inactive)"}
{"Molecule": "CC1C/C=C/C=C/C=C/C=C/C(O[C@@H]2O[C@H](C)[C@@H](O)[C@H](N)[C@@H]2O)CC2OC(O)(CC(O)CC3OC3/C=C/C(=O)O1)CC(O)C2C(=O)O (stereo not given in full)", "Observed property": "normalized growth", "Recorded result": "0.998 (inactive)"}
{"Molecule": "CC12CCC3C(=CCc4cc(O)ccc43)C1CCC2=O (stereo not given)", "Observed property": "normalized growth", "Recorded result": "0.979 (inactive)"}

* * *

# Experiment summary: chemical genetic growth profiling, strain panel (AID 1159580);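 also: tested at 20 µM; growth read once vehicle control cultures reached saturation at 30 °C; 1 = growth at the plate median or of vehicle wells; lower values mean less growth of the strain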
# Condition set: S. cerevisiae deletion strains, growth OD, locus YOR136W, strain idh2, active compounds read low
The campaign covered roughly 5,500 compounds. About 2,000 (36%) were called active. Not shown: some 18% with an inconclusive outcome. The list shows a part of the results.
In this section we review reported normalized growth values for a set of compounds.

{"Compound": "CC1[C@H](C)OC(=O)CC(O)CC(O)CC(O)CCC(O)C(O)C[C@]2(O)CC(O)C(C(=O)O)C(CC(OC3O[C@H](C)[C@@H](O)[C@H](N)[C@@H]3O)/C=C/C=C/C=C/C=C/CC/C=C/C=C/[C@H](C)[C@H]1O)O2 (some centres not stated)", "normalized growth": 0.221}
{"Compound": "NCC[C@@H](O)C(=O)N[C@@H]1C[C@H](N)[C@@H](O[C@H]2O[C@H](CN)[C@@H](O)[C@H](O)[C@H]2O)[C@H](O)[C@H]1O[C@H]1O[C@H](CO)[C@@H](O)[C@H](N)C1O (some centres not stated)", "normalized growth": 1.02}
{"Compound": "NCCCCNCCCN", "normalized growth": 0.996}
{"Compound": "COc1ccc(-c2cc(=O)c3c(OC)cc(OC)cc3o2)cc1", "normalized growth": 0.996}
{"Compound": "COC(=O)[C@@H]1OC(=O)C2OC23[C@@]1(C)CCC1[C@@]2(C)CCC(=O)C(C)(C)C2C[C@@H](OC(C)=O)[C@]13C (some centres not stated)", "normalized growth": 0.993}
{"Compound": "CN[C@@H]1C(OC2[C@H](O[C@H]3[C@H](O)[C@@H](O)[C@H](N=C(N)N)[C@@H](O)[C@@H]3N=C(N)N)OC(C)[C@]2(O)CO)OC(CO)C(O)C1O (some centres not stated)", "normalized growth": 0.976}
{"Compound": "COc1cc(C)c2c(=O)cc(-c3ccccc3)oc2c1", "normalized growth": 0.972}
